# Protocol text: Photophysical characterization: absorption maxima and extinction coefficients (Lambda 2-spectrometer)
# Assay type: physicochemical
# Test conditions: dyes 7-14 table; formulation with Gd-complex perfluoroalkyl derivative (WO 97/26017 Ex. 33); 5 mol % of dye
Where a name gives a salt, the structure may show the parent alone.
Measured metric: Extinction coefficient

Q) Fill blank: measured Extinction coefficient of the molecule CCN1C(=CC=CC=CC=CC2=[N+](CCCCS(=O)(=O)[O-])c3ccc(C(=O)N(CCOCCC(F)(F)C(F)(F)C(F)(F)C(F)(F)C(F)(F)C(F)(F)C(F)(F)C(F)(F)F)CC(O)CO)cc3C2(C)C)C(C)(C)c2ccccc21 (stereo not drawn) [Dye 14, sodium salt] is ____.
A) 124,100 L mol^−1 cm^−1

Q) How about CC1(C)C(=CC=CC=CC=CC2=[N+](CCCCS(=O)(=O)[O-])c3ccc(C(=O)N(CCOCCC(F)(F)C(F)(F)C(F)(F)C(F)(F)C(F)(F)C(F)(F)C(F)(F)C(F)(F)F)CC(O)CO)cc3C2(C)C)N(CCCCS(=O)(=O)[O-])c2ccccc21.[Na+] (stereo not drawn) [Dye 10] ?
A) 120,800 L mol^−1 cm^−1

Q) How about CCN1C(=CC=CC=CC2=[N+](CCCCS(=O)(=O)[O-])c3ccc(C(=O)NCCOCCC(F)(F)C(F)(F)C(F)(F)C(F)(F)C(F)(F)C(F)(F)C(F)(F)C(F)(F)F)cc3C2(C)C)C(C)(C)c2ccccc21 [Dye 11, sodium salt] ?
A) 145,000 L mol^−1 cm^−1

Q) How about CCN1C(=CC=CC=CC2=[N+](CCCCS(=O)(=O)[O-])c3ccc(C(=O)N(CCOCCC(F)(F)C(F)(F)C(F)(F)C(F)(F)C(F)(F)C(F)(F)C(F)(F)C(F)(F)F)CC(O)CO)cc3C2(C)C)C(C)(C)c2ccccc21 (stereo not drawn) [Dye 13, sodium salt] ?
A) 150,700 L mol^−1 cm^−1

Q) How about CC1(C)C(=CC=CC=CC2=[N+](CCCCS(=O)(=O)[O-])c3ccc(C(=O)N(CCOCCC(F)(F)C(F)(F)C(F)(F)C(F)(F)C(F)(F)C(F)(F)C(F)(F)C(F)(F)F)CC(O)CO)cc3C2(C)C)N(CCCCS(=O)(=O)[O-])c2ccccc21.[Na+] (stereo not drawn) [Dye 9] ?
A) 123,700 L mol^−1 cm^−1

Q) How about CCN1C(=CC=CC=CC=CC2=[N+](CCCCS(=O)(=O)[O-])c3ccc(C(=O)NCCOCCC(F)(F)C(F)(F)C(F)(F)C(F)(F)C(F)(F)C(F)(F)C(F)(F)C(F)(F)F)cc3C2(C)C)C(C)(C)c2ccccc21 [Dye 12, sodium salt] ?
A) 118,800 L mol^−1 cm^−1
